test: Solubility comparison in pH 1.8 SGF and high purity water, saturated solutions determined by HPLC; format: physicochemical; conditions: water, thermodynamic from solid, H2O (high purity water), 4 h
Structures can show the parent of a compound that is named as a salt.
Readout type: solubility at 4 h

Q: Check the records and state solubility at 4 h for CCOc1cc2ncc(C#N)c(Nc3ccc(OCc4ccccn4)c(Cl)c3)c2cc1NC(=O)/C=C/CN(C)C [Form A, maleate]
A: > 3900 µg/mL

###

test: Solubility comparison in pH 1.8 SGF and high purity water, saturated solutions determined by HPLC; assay type: physicochemical; settings: thermodynamic from solid; H2O (high purity water), 24 h
Readout type: solubility at 24 h (µg/mL)
Could you give me the number in µg/mL? Just the number is fine.

Q: Check the records and state solubility at 24 h for CCOc1cc2ncc(C#N)c(Nc3ccc(OCc4ccccn4)c(Cl)c3)c2cc1NC(=O)/C=C/CN(C)C [Form II, reference compound]
A: 940

###

assay: Solubility comparison in pH 1.8 SGF and high purity water, saturated solutions determined by HPLC; type: physicochemical; conditions: thermodynamic from solid; H2O (high purity water), 1 h
Readout type: solubility at 1 h (µg/mL)
Could you give me the number in µg/mL? Just the number is fine.

Q: Check the records and state solubility at 1 h for CCOc1cc2ncc(C#N)c(Nc3ccc(OCc4ccccn4)c(Cl)c3)c2cc1NC(=O)/C=C/CN(C)C [Form II, reference compound]
A: 1000

###

Assay: Solubility comparison in pH 1.8 SGF and high purity water, saturated solutions determined by HPLC
Format: physicochemical
Conditions: water, thermodynamic from solid, H2O (high purity water), 1 h
Procedure: Maleate crystalline Form A, Form B of the present invention and maleate Form II in CN101918390B were added in pH 1.8 SGF (simulated gastric fluid), and in high purity water to obtain suspensions. Concentrations in the saturation solutions were determined after 1 hour, 4 hours and 24 hours by HPLC.
Where a name gives a salt, the structure may show the parent alone.
Readout type: solubility at 1 h

Q: Check the records and state solubility at 1 h for CCOc1cc2ncc(C#N)c(Nc3ccc(OCc4ccccn4)c(Cl)c3)c2cc1NC(=O)/C=C/CN(C)C [Form A, maleate]
A: > 3900 µg/mL

Value source: patent US10246437B2
